target: Torsin-1A-interacting protein 2 (Homo sapiens) (UniProt Q8NFQ8); assay: LULL1 binders on small-molecule microarray, primary screen, cell lysate, human LULL1 lysate, 635/667 nm fluorescence (AID 1092); settings: hLULL1 lysate binding, 635 nm fluorescence, higher = more signal;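 also: probe is lysate of COS7 cells overexpressing human LULL1; score merges per-feature 667 nm fluorescence with signal-to-noise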
Sequence (Q8NFQ8 whole entry, looked up): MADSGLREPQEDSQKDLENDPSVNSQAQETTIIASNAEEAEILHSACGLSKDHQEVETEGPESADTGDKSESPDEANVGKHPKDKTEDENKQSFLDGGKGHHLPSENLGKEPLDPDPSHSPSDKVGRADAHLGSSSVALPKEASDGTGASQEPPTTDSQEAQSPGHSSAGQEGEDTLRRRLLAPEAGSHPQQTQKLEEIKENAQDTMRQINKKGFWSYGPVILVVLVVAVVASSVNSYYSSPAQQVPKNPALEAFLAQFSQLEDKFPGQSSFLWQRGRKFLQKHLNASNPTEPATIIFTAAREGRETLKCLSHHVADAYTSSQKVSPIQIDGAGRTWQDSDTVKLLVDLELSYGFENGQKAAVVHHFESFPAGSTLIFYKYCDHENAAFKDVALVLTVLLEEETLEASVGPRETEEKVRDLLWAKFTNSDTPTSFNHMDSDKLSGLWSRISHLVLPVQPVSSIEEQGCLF
For each of the molecules below, state its composite z-score.
One number for each entry.

Examples with answers:
CCc1cc2c(nc1CC)CCN(CCC(C)=NOCC[C@@H]1C=C[C@H](OC(C)=O)[C@@H](COC(C)=O)O1)C2	0.796
CC(CCN1CCCc2nc(C)c(C)cc21)=NO[C@H](C)c1cn([C@@H]2COC[C@H]2O)nn1	0.788

Below: the item to evaluate.
# lookup: composite z-score of COc1ccc(OC[C@@H]2CC3[C@@H](c4ccc(Br)cc4)[C@H](C)CC[C@H]3C(=O)O2)cc1 (stereo partly drawn)
0.82
